- assay_system: Rac GTPase-activating protein 1 (Homo sapiens) (UniProt Q9H0H5)
- Sequence (Q9H0H5 whole entry, looked up): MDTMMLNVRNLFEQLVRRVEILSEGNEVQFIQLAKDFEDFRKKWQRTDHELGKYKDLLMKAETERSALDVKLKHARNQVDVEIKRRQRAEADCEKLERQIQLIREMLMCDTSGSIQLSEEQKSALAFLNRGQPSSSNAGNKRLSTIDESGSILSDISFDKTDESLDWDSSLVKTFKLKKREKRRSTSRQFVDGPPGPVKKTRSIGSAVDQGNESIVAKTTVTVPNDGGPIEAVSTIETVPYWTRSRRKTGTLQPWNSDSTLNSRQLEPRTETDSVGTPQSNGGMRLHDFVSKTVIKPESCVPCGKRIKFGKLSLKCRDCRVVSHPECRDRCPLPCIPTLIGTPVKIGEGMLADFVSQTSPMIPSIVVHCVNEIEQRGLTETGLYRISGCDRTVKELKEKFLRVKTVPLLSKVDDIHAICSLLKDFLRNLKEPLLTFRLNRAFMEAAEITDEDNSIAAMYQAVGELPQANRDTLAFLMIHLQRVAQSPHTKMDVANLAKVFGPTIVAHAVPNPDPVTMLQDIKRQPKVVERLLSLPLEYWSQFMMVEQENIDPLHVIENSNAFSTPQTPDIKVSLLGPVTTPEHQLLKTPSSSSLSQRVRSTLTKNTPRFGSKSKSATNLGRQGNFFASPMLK
- procedure_text: blockers of MgcRacGAP-driven Rac1 GTP hydrolysis – biochemical, ADP Hunter fluorescence, primary and confirmatory, confirmation (AID 624330);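 also: fluorescence reports GDP produced by GAP-driven GTP hydrolysis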
- condition: MgcRacGAP-stimulated Rac1 GTP hydrolysis, at 30 µM, stronger effect = higher value, GST-tagged Rac1 F28L mutant substrate
Among all 340,000 compounds or so, about 2,100 (0.62%) were called active. Only a sample is shown. Entries with a potency or affinity are not part of this list.
property_name: inhibition

Worked examples, 3 molecules total:
[[record]]
molecule = "O=C(O)CSc1nnc(SCc2cccc3ccccc23)s1"
assay_system = "Rac GTPase-activating protein 1 (Homo sapiens) (UniProt Q9H0H5)"
property_name = "inhibition"
endpoint_result = "4.86% (inactive)"

[[record]]
molecule = "COc1ccc(OC)c(S(=O)(=O)NCC(=O)NC2CCCc3ccccc32)c1 (stereo not drawn)"
assay_system = "Rac GTPase-activating protein 1 (Homo sapiens) (UniProt Q9H0H5)"
property_name = "inhibition"
endpoint_result = "6.06% (inactive)"

[[record]]
molecule = "COCc1[nH][nH]c(=O)c1C=Nc1ccc(Cl)cc1"
assay_system = "Rac GTPase-activating protein 1 (Homo sapiens) (UniProt Q9H0H5)"
property_name = "inhibition"
endpoint_result = "8.52% (inactive)"


State recorded inhibition for all listed molecules.
1. CN(C)c1ccc(/C=N/NC(=O)c2ccc3c(c2)OCO3)cc1
2. O=[N+]([O-])c1ccc(Nc2ccccc2O)c2nonc12
3. Nc1c(C(=O)c2cccs2)oc2ccccc12
4. O=[N+]([O-])c1ccc2nonc2c1Nc1ccccc1
5. Cc1nn(CC(=O)NCC(C)c2ccccc2)c(=O)c2cc3occc3n12 (stereo not drawn)

Reply |
1: 16.6% (inactive); 2: 19.7% (inactive); 3: 6.17% (inactive); 4: 5.91% (inactive); 5: 10% (inactive)

----------
Provide the reported inhibition of each item.
- assay_system: Rac GTPase-activating protein 1 (Homo sapiens) (UniProt Q9H0H5)
- procedure_text: blockers of MgcRacGAP-driven Rac1 GTP hydrolysis – biochemical, ADP Hunter fluorescence, primary and confirmatory, confirmation (AID 624330);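 also: fluorescence reports GDP produced by GAP-driven GTP hydrolysis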
- condition: MgcRacGAP-stimulated Rac1 GTP hydrolysis, at 30 µM, stronger effect = higher value, GST-tagged Rac1 F28L mutant substrate
In all, about 340,000 compounds went through this assay and about 2,100 (0.62%) were called active. The list is a sample of the results. Potency and affinity values are given separately.
One number for each entry, in %.

Worked examples, 8 compounds total:
[[record]]
compound = "CNS(=O)(=O)c1cccc(C(=O)OCC(=O)C23CC4CC(CC(C4)C2)C3)c1"
property_name = "inhibition"
endpoint_result = 2.1

[[record]]
compound = "CCOc1ccc(/C=N/N2CCN(Cc3ccccc3)CC2)cc1"
property_name = "inhibition"
endpoint_result = -1.17

[[record]]
compound = "C(=N\\N1CCN(Cc2ccccc2)CC1)/c1ccccc1"
property_name = "inhibition"
endpoint_result = 8.38

[[record]]
compound = "CCOc1ccc(C(=O)NNC(=O)C2CC(=O)N(c3ccc(C)cc3)C2)cc1 (centres undefined)"
property_name = "inhibition"
endpoint_result = 5.17

[[record]]
compound = "Brc1ccc(/C=N/Nc2ccccn2)cc1"
property_name = "inhibition"
endpoint_result = 10.9

[[record]]
compound = "COc1ccc(CCC(=O)Nc2ccc(Cn3ccnc3)cc2)cc1"
property_name = "inhibition"
endpoint_result = 6.46

[[record]]
compound = "CCN(CC)c1ccc(/C=N\\N2CCN(Cc3ccc(C)cc3)CC2)cc1"
property_name = "inhibition"
endpoint_result = 20.7

[[record]]
compound = "CCN(C(=S)NC(=O)c1ccco1)c1cccc2ccccc12"
property_name = "inhibition"
endpoint_result = 15.5


Now for the compound whose inhibition we want.
Ask | Give Rac GTPase-activating protein 1 (Homo sapiens) (UniProt Q9H0H5) inhibition for c1ccc(CN2CCN(Cc3c[nH]c4ccccc34)CC2)cc1
Reply | 8.7

----------
- assay_system: Rac GTPase-activating protein 1 (Homo sapiens) (UniProt Q9H0H5)
- procedure_text: blockers of MgcRacGAP-driven Rac1 GTP hydrolysis – biochemical, ADP Hunter fluorescence, primary and confirmatory, confirmation (AID 624330);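 also: fluorescence reports GDP produced by GAP-driven GTP hydrolysis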
- condition: MgcRacGAP-stimulated Rac1 GTP hydrolysis, at 30 µM, stronger effect = higher value, GST-tagged Rac1 F28L mutant substrate
Screen size: about 340,000 compounds; about 2,100 (0.62%) were called active. Only a sample is shown. Measured potencies and affinities stand elsewhere.
property_name: inhibition (%)
Answers are plain numbers, in %.

[[record]]
compound = "Cc1cccc(CN(C)CCc2ccccn2)c1"
assay_system = "Rac GTPase-activating protein 1 (Homo sapiens) (UniProt Q9H0H5)"
property_name = "inhibition"
unit_tag = "%"
endpoint_result = 9.5

[[record]]
compound = "c1ccc(Nc2cccc(Nc3ccccc3)c2)cc1"
assay_system = "Rac GTPase-activating protein 1 (Homo sapiens) (UniProt Q9H0H5)"
property_name = "inhibition"
unit_tag = "%"
endpoint_result = 19.8

[[record]]
compound = "c1ccc2[nH]c(CCCc3nc4ccccc4[nH]3)nc2c1"
assay_system = "Rac GTPase-activating protein 1 (Homo sapiens) (UniProt Q9H0H5)"
property_name = "inhibition"
unit_tag = "%"
endpoint_result = -1.49


State recorded inhibition for all listed compounds.
1. C=C1/C=C(\C)C(C)(O)CC(O)CC(=O)C(O)C(O)C(C)CC(C)OC(=O)/C(C)=C/CC/C=C/C(OC)C(O)CC(C)C1 (centres undefined)
2. CN(CCc1ccccn1)Cc1ccc(Cl)c(Cl)c1
3. CCOc1ccc(C(=O)N2CCC(C(=O)c3ccc4c(c3)OCCO4)CC2)cc1
4. CCCCOc1cccc(C(=O)O)c1
5. Cc1ccc(NS(=O)(=O)c2ccc(-n3cccn3)cc2)nc1
6. Oc1cccc(Nc2c3ccccc3nc3ccccc23)c1

Reply |
1. 9.68
2. 27.1
3. -2.21
4. 4
5. 4.91
6. 16.7

----------
Provide the reported inhibition of each item.
- assay_system: Rac GTPase-activating protein 1 (Homo sapiens)
- procedure_text: blockers of MgcRacGAP-driven Rac1 GTP hydrolysis – biochemical, ADP Hunter fluorescence, primary and confirmatory, confirmation (AID 624330);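 also: fluorescence reports GDP produced by GAP-driven GTP hydrolysis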
- condition: MgcRacGAP-stimulated Rac1 GTP hydrolysis, at 30 µM, stronger effect = higher value, GST-tagged Rac1 F28L mutant substrate
In all, about 340,000 compounds went through this assay and about 2,100 (0.62%) were called active. Not all results are given here. Entries with a potency or affinity are not part of this list.
One number for each entry, in %.

Worked examples, 4 compounds total:
[[record]]
compound = "CCOC(=O)c1sc(NC(C)=O)nc1C"
assay_system = "Rac GTPase-activating protein 1 (Homo sapiens)"
endpoint_result = 6.36

[[record]]
compound = "CCN1/C(=N\\N)c2cccc3cccc1c23"
assay_system = "Rac GTPase-activating protein 1 (Homo sapiens)"
endpoint_result = 13.1

[[record]]
compound = "Cc1c(N2C(=O)CSC2c2ccc(F)cc2)c(=O)n(-c2ccccc2)n1C (stereo not given)"
assay_system = "Rac GTPase-activating protein 1 (Homo sapiens)"
endpoint_result = -1.84

[[record]]
compound = "COc1ccc(OCc2nnc(SCC(=O)N3CCCC3)o2)cc1"
assay_system = "Rac GTPase-activating protein 1 (Homo sapiens)"
endpoint_result = 5.88


Ask | Requested read-out: inhibition. Entry: CCOC(=O)c1c(C)nsc1NC(=O)C1CCCCC1
Reply | -1.81

----------
- assay_system: Rac GTPase-activating protein 1 (Homo sapiens) (UniProt Q9H0H5)
- procedure_text: blockers of MgcRacGAP-driven Rac1 GTP hydrolysis – biochemical, ADP Hunter fluorescence, primary and confirmatory, confirmation (AID 624330);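 also: fluorescence reports GDP produced by GAP-driven GTP hydrolysis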
- condition: MgcRacGAP-stimulated Rac1 GTP hydrolysis, at 30 µM, stronger effect = higher value, GST-tagged Rac1 F28L mutant substrate
Hit rate of the full screen: of about 340,000 compounds, about 2,100 (0.62%) were called active. A selection follows. Results with a measured potency or affinity are listed apart.
property_name: inhibition (%)
One number for each entry, in %.

Worked examples, 5 molecules total:
[[record]]
molecular_string = "Cc1cc(C(=O)Nc2nccs2)c2cc(F)ccc2n1"
endpoint_result = 4.04

[[record]]
molecular_string = "CCn1cnc2cc(NCc3ccc(C)cc3)ccc21"
endpoint_result = 25.6

[[record]]
molecular_string = "COc1ccc(C(C#N)=C2C=CC(=NO)C(C)=C2Cl)cc1"
endpoint_result = 21.7

[[record]]
molecular_string = "COc1ccc(C(C#N)=C2C=C(Cl)C(=NO)C=C2Cl)cc1"
endpoint_result = -1.89

[[record]]
molecular_string = "COc1ccc(/C(N)=N/OC(=O)Cc2cccs2)cc1"
endpoint_result = 5.03


Ask | Requested read-out: inhibition. Entry: O=C(C1=NN[C@@H]2C(=O)N(Cc3ccccc3)C(=O)[C@H]12)c1ccc([N+](=O)[O-])cc1
Reply | 14.7
